Biological target: Potassium voltage-gated channel subfamily KQT member 2 (Rattus norvegicus) (UniProt O88943)
Sequence (O88943 whole entry, looked up): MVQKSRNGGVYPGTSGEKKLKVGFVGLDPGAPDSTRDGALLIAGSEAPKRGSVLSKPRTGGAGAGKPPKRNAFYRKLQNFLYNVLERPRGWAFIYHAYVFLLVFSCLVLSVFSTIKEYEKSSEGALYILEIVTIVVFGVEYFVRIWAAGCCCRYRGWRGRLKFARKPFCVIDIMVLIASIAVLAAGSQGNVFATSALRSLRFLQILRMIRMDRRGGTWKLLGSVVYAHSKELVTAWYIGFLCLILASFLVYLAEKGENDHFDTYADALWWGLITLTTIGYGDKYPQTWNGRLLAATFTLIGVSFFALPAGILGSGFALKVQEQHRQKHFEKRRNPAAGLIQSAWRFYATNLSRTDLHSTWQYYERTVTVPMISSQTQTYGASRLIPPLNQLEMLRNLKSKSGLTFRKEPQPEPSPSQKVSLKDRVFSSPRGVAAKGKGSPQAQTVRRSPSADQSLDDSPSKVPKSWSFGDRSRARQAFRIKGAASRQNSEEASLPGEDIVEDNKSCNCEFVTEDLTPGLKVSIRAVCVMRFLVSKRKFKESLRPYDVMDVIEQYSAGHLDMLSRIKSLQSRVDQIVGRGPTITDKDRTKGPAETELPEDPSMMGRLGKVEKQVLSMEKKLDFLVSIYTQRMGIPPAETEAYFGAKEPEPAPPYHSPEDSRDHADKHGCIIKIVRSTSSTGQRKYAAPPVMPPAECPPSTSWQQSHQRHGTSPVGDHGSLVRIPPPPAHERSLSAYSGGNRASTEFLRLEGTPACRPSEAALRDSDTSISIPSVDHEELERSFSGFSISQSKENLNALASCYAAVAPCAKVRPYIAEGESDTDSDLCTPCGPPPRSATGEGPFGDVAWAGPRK
Experiment: KCNQ2 potentiation in CHO cells – cell-based, FluxOR thallium flux, counter-screen for hERG block protector project, confirmation (AID 1942);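 also: normalized value minus buffer-control mean plus three SD of buffer wells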
Details: FluxOR thallium flux fluorescence, at 10 µM
The whole screen tested about 2,400 compounds, of which about 580 (24%) were called active.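 The calls were made as follows: active = activity change at or above the mean plus 3 SD of buffer wells without dofetilide, per plate; inactive = the rest.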 The list is a sample of the results.
Please answer using one outcome listed in YES (active), NO (inactive)

Solved cases below.
Q: Which outcome did this test record for the compound C=C(C)C1CC=C(C)/C(=N/NC(=O)CCC(=O)Nc2ccccc2Cl)C1 (stereo not drawn) ?
Ans: NO

Q: Which outcome did this test record for the compound Cc1cc(C)cc(N(C(=O)c2cc3ccccc3oc2=O)C2C=CS(=O)(=O)C2)c1 (stereo not drawn) ?
Ans: NO

Q: Which outcome did this test record for the compound COc1ccccc1C(=O)NNC(=O)C(=O)Nc1ccc(C)c(Cl)c1 ?
Ans: YES

Q: Which outcome did this test record for the compound Cc1cccnc1NC(=O)c1csnn1 ?
Ans: NO

Q: Which outcome did this test record for the compound Cc1cc(OCc2ccc(C(=O)Nc3ccc(C(=O)O)cc3)o2)ccc1Cl ?
Ans: NO

***
Q: Which outcome did this test record for the compound Cc1oc2ccc(OCc3ccc(Cl)cc3)cc2c1C(=O)O ?
Ans: NO

Q: Which outcome did this test record for the compound O=C(NC(=S)Nc1ccccc1Cl)c1csnn1 ?
Ans: YES

Q: Which outcome did this test record for the compound COc1ccccc1C(=O)NNC(=O)C(=O)NC(C)(C)C ?
Ans: YES

* * *

Target: Potassium voltage-gated channel subfamily KQT member 2 (Rattus norvegicus) (UniProt O88943)
Test: KCNQ2 potentiation in CHO cells – cell-based, FluxOR thallium flux, counter-screen for hERG block protector project, confirmation (AID 1942);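 also: normalized value minus buffer-control mean plus three SD of buffer wells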
Settings: FluxOR thallium flux fluorescence, at 10 µM, active compounds read high
Out of some 2,400 compounds screened, about 580 (24%) were called active. Not all results are given here.
MEASUREMENT KIND: activity change, less the hit threshold (%)
Expressed in %, but write only the number.

Example entries begin here.
Short answer for CCN(CC)CCCN1C(=O)c2oc3ccccc3c(=O)c2C1c1cccs1 (stereo not drawn) : activity change, less the hit threshold was 12.9

Short answer for OC(CNCCc1ccc(C(F)(F)F)cc1)COc1cccc2ccccc12 (stereo not drawn) : activity change, less the hit threshold was -39.6

Short answer for COc1cc2c(cc1OC)C(c1ccc([N+](=O)[O-])cc1)N(C(C)=O)CC2 (stereo not drawn) : activity change, less the hit threshold was -27

Short answer for CCc1noc(C)c1C(=O)N1CCCC(N2CCN(c3ccccc3F)CC2)C1 (stereo not drawn) : activity change, less the hit threshold was -14.7

***
Short answer for COc1nnc(-c2ccc(C)c(S(=O)(=O)NC(C)(C)CO)c2)c2ccccc12 : activity change, less the hit threshold was -9.1

Short answer for O=S(=O)(Nc1cccc(-n2cnnn2)c1)c1ccc(Cl)nc1 : activity change, less the hit threshold was -9

Short answer for O=C(Cn1c(=O)c2cccn2c2ccccc21)NCCc1ccc(Cl)cc1 : activity change, less the hit threshold was -34.9

Short answer for CCCn1c(CC)nc([N+](=O)[O-])c1S(=O)(=O)c1ccccc1 : activity change, less the hit threshold was -4.3

Short answer for COCCN1C(=O)c2oc3cc(C)c(C)cc3c(=O)c2C1c1ccc(O)cc1 (stereo not drawn) : activity change, less the hit threshold was -0.6

Short answer for COCCCN1C(=O)C(=O)/C(=C(/O)c2ccc(S(=O)(=O)N3CCOCC3)cc2)C1c1ccc(F)cc1 (stereo not drawn) : activity change, less the hit threshold was -9.9

Short answer for COc1ccc(C)cc1-n1nnnc1SCc1nc2ccccc2c(=O)[nH]1 : activity change, less the hit threshold was -22

Short answer for Cc1nc(Oc2ccc(Cl)cc2)c2oc3ccccc3c2n1 : activity change, less the hit threshold was -15.6

Short answer for O=C(CS(=O)(=O)Cc1ccccc1)Nc1ccc(Cl)cn1 : activity change, less the hit threshold was -21.6

Short answer for Cc1ccc(OCC(=O)Nn2cnc3ccccc32)cc1 : activity change, less the hit threshold was -12.3

Short answer for CC1=NN(c2ccccc2)C(=O)C1C(=O)c1ccc(Cl)cc1 (stereo not drawn) : activity change, less the hit threshold was -0.6

Short answer for COC(=O)c1c(NC(=O)C(C)(C)C)csc1C : activity change, less the hit threshold was -9.2

Short answer for CC(C)C(=O)Nc1c(-c2ccccc2F)c(=O)c2ccccc2n1C : activity change, less the hit threshold was -21.5

Short answer for Cc1ccc(N=C2NC(=O)/C(=C/c3cccs3)S2)cc1C : activity change, less the hit threshold was -6.4

Short answer for Nc1ncnc(Oc2cccc3cccnc23)c1[N+](=O)[O-] : activity change, less the hit threshold was -25.4

Short answer for O=c1c2cc(Cl)ccc2nc(-c2ccccc2)n1O : activity change, less the hit threshold was 27.1

Short answer for OC(COC(c1ccccc1)c1ccccc1)CN1CCCCC1 (stereo not drawn) : activity change, less the hit threshold was -23.9

Short answer for CN1C(=O)/C(=N\OC(=O)c2cccc3ccccc23)c2ccccc21 : activity change, less the hit threshold was -9.4

Short answer for Cc1ccc2oc3c(c(=O)c2c1)C(c1cccs1)N(CCCN(C)C)C3=O (stereo not drawn) : activity change, less the hit threshold was 7.1
